Measured values drawn from paper PMC12530842 for this set.

molecular target: GRK6 (Homo sapiens, UniProt P43250, C561S/C562S/C565S/T10A); construct: His tag (inferred: purified by the GRK5 protocol, which starts with nickel-NTA); experiment: GRK6 kinase inhibition assay, phosphorylation of tubulin ([γ-32P]-ATP); conditions: phosphorylation of the soluble substrate tubulin; ± standard deviation from 3 to 4 independent experiments
Sequence (P43250 whole entry T10A/C561S/C562S/C565S): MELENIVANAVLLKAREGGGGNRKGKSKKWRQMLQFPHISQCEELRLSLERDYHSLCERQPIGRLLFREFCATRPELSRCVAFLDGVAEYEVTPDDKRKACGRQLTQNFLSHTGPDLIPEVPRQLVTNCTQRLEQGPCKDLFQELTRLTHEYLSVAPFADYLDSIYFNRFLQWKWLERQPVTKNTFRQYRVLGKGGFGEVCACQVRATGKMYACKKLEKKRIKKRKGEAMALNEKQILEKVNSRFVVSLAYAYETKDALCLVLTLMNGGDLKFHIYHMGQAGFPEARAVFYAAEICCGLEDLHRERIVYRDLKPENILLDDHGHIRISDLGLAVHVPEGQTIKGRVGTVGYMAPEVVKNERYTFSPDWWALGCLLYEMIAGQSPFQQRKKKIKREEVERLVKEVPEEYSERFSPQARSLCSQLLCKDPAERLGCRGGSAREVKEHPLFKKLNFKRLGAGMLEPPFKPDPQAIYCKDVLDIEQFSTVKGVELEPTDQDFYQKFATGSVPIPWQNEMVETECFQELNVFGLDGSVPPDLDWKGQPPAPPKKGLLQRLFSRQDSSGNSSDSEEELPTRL
endpoint: IC50 (µM)

Some solved cases for reference:
molecule: Cc1[nH]c(/C=C2\C(=O)Nc3ccc(C(=O)N[C@H](C)c4ccc(F)cc4)cc32)c(C)c1NC(=O)[C@H]1CCN(C(=O)OC(C)(C)C)C1 [6l]
assayed.system: GRK6 (Homo sapiens, UniProt P43250, C561S/C562S/C565S/T10A)
endpoint: IC50
number: 0.88
--
molecule: Cc1[nH]c(/C=C2\C(=O)Nc3ccc(C(=O)N[C@H](C)c4ccc(F)cc4)cc32)c(C)c1NC(=O)[C@@H]1CCCCN1C(=O)OC(C)(C)C [6n]
assayed.system: GRK6 (Homo sapiens, UniProt P43250, C561S/C562S/C565S/T10A)
endpoint: IC50
number: 0.9
--
molecule: Cc1[nH]c(/C=C2\C(=O)Nc3ccc(C(=O)N[C@H](C)c4ccc(F)cc4)cc32)c(C)c1NC(=O)[C@H]1CCCNC1 [6q]
assayed.system: GRK6 (Homo sapiens, UniProt P43250, C561S/C562S/C565S/T10A)
endpoint: IC50
number: 0.016
--
molecule: Cc1[nH]c(/C=C2\C(=O)Nc3ccc(C(=O)N[C@H](C)c4ccc(F)cc4)cc32)c(C)c1NC(=O)[C@H]1CCCN(C(=O)OC(C)(C)C)C1 [6o]
assayed.system: GRK6 (Homo sapiens, UniProt P43250, C561S/C562S/C565S/T10A)
endpoint: IC50
number: 0.15

[P] Cc1[nH]c(/C=C2\C(=O)Nc3ccc(C(=O)N[C@H](C)c4ccc(F)cc4)cc32)c(C)c1NC(=O)[C@H]1CNCCN1 [6u]
[Q] Cc1[nH]c(/C=C2\C(=O)Nc3ccc(C(=O)N[C@H](C)c4ccc(F)cc4)cc32)c(C)c1NC(=O)[C@@H]1CCCN(C(=O)OC(C)(C)C)C1 [6p]
Incoming: In the pair P and Q , the larger recorded IC50 belongs to which? // output: label of the selected item
Outgoing: Q

[I] Cc1[nH]c(/C=C2\C(=O)Nc3ccc(C(=O)N[C@H](C)c4ccc(F)cc4)cc32)c(C)c1NC(=O)[C@H]1CCCCN1C(=O)OC(C)(C)C [6m]
[II] Cc1[nH]c(/C=C2\C(=O)Nc3ccc(C(=O)N[C@H](C)c4ccc(F)cc4)cc32)c(C)c1NC(=O)[C@@H]1CN(C(=O)OC(C)(C)C)CCN1 [6t]
[III] Cc1[nH]c(/C=C2\C(=O)Nc3ccc(C(=O)N[C@H](C)c4ccc(F)cc4)cc32)c(C)c1NC(=O)[C@H]1CCCN1 [6g]
Incoming: rank_up(items): orders items by reported IC50 in ascending numerical order. Would you mind listing the labels in the order asked for?
Outgoing: III, II, I

[I] Cc1[nH]c(/C=C2\C(=O)Nc3ccc(C(=O)N[C@H](C)c4ccc(F)cc4)cc32)c(C)c1NC(=O)[C@@H]1C=CCN1 [6j]
[II] Cc1[nH]c(C=C2C(=O)Nc3ccc(C(=O)NC(C)c4ccc(F)cc4)cc32)c(C)c1NC(=O)C1C=CCN1C(=O)OC(C)(C)C (stereo not shown) [6i]
Incoming: For this pair, I and II , which shows a numerically higher IC50? Write down the label attached to your selection.
Outgoing: II

###

target: GRK5 (Homo sapiens); construct: Human GR K5 (residues 1- 590) w ild- type and D 311N mutant w ere expressed in E. co li Rosetta; His tag (inferred from nickel-NTA purification); made in house; host or cells: E. coli Rosetta (DE3); experiment: GRK5 kinase inhibition assay, phosphorylation of tubulin ([γ-32P]-ATP); assay type: biochemical; details: fold selectivity for GRK5 over GRK2
endpoint: Selectivity GRK2/GRK5 (fold)

# annotated cases, reported Selectivity GRK2/GRK5 shown
compound: Cc1[nH]c(/C=C2\C(=O)Nc3ccc(C(=O)N[C@H](C)c4ccc(F)cc4)cc32)c(C)c1NC(=O)[C@H]1CN(C(=O)OC(C)(C)C)CCN1
number: 430
//
compound: Cc1[nH]c(/C=C2\C(=O)Nc3ccc(C(=O)N[C@H](C)c4ccc(F)cc4)cc32)c(C)c1NC(=O)[C@H]1CCC(=O)N1
number: 3
//
compound: Cc1[nH]c(/C=C2\C(=O)Nc3ccc(C(=O)N[C@H](C)c4ccc(F)cc4)cc32)c(C)c1NC(=O)[C@H]1CCCCN1C(=O)OC(C)(C)C
number: 2
//
compound: Cc1[nH]c(C=C2C(=O)Nc3ccc(C(=O)NC(C)c4ccc(F)cc4)cc32)c(C)c1NC(=O)C1C=CCN1C(=O)OC(C)(C)C (stereo not shown)
number: 130
//
compound: Cc1[nH]c(/C=C2\C(=O)Nc3ccc(C(=O)N[C@H](C)c4ccc(F)cc4)cc32)c(C)c1NC(=O)[C@H]1CCCNC1
number: 4
//
compound: Cc1[nH]c(/C=C2\C(=O)Nc3ccc(C(=O)N[C@H](C)c4ccc(F)cc4)cc32)c(C)c1NC(=O)[C@H]1CNCCN1
number: 15

[I] Cc1[nH]c(/C=C2\C(=O)Nc3ccc(C(=O)N[C@H](C)c4ccc(F)cc4)cc32)c(C)c1NC(=O)[C@@H]1CCCNC1
[II] Cc1[nH]c(/C=C2\C(=O)Nc3ccc(C(=O)N[C@H](C)c4ccc(F)cc4)cc32)c(C)c1NC(=O)[C@@H]1CCCN1
Incoming: Exercise: compare I and II ; which one has the greater Selectivity GRK2/GRK5? Your answer should be the label of the entry you select.
Outgoing: I
(I: 20 fold, II: 1 fold)

[A] Cc1[nH]c(/C=C2\C(=O)Nc3ccc(C(=O)N[C@H](C)c4ccc(F)cc4)cc32)c(C)c1NC(=O)[C@@H]1CCC(=O)N1
[B] Cc1[nH]c(/C=C2\C(=O)Nc3ccc(C(=O)N[C@H](C)c4ccc(F)cc4)cc32)c(C)c1NC(=O)[C@@H]1CCCN(C(=O)OC(C)(C)C)C1
Incoming: When A and B are compared, which has the higher number for Selectivity GRK2/GRK5? Mark your answer with the label of the selected entry.
Outgoing: B

[P] Cc1[nH]c(/C=C2\C(=O)Nc3ccc(C(=O)N[C@H](C)c4ccc(F)cc4)cc32)c(C)c1NC(=O)[C@@H]1C=CCN1
[Q] Cc1[nH]c(/C=C2\C(=O)Nc3ccc(C(=O)N[C@H](C)c4ccc(F)cc4)cc32)c(C)c1NC(=O)[C@H]1CCCN(C(=O)OC(C)(C)C)C1
Incoming: Lower Selectivity GRK2/GRK5: P or Q ? Identify your pick by its label.
Outgoing: P
(P: 16 fold, Q: 66 fold)

###

molecular target: GRK5 (Homo sapiens, UniProt P34947); construct: Human GR K5 (residues 1- 590) w ild- type and D 311N mutant w ere expressed in E. co li Rosetta; His tag (inferred from nickel-NTA purification); made in house; host or cells: E. coli Rosetta (DE3); assay: GRK5 kinase inhibition assay, phosphorylation of tubulin ([γ-32P]-ATP); format: biochemical; conditions: fold selectivity for GRK5 over GRK2
Sequence (P34947 whole entry, the tested form may be a part): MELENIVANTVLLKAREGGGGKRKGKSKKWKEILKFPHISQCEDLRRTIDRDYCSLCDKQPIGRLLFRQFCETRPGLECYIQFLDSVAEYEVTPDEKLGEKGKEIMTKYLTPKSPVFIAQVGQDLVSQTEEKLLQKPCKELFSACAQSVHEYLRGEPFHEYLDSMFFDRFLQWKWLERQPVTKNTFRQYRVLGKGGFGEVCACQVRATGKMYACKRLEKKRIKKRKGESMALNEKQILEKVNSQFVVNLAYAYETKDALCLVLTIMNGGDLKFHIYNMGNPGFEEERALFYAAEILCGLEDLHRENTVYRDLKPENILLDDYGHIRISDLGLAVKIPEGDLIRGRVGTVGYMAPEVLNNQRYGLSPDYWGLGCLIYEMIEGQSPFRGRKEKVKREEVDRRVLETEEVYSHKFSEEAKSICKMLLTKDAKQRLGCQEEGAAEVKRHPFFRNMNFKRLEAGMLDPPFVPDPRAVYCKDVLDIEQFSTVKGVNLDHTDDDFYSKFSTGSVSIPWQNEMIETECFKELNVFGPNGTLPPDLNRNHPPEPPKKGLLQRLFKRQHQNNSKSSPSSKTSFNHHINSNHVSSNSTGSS
endpoint: Selectivity GRK2/GRK5 (fold)

Please review the following examples before continuing.
molecule: Cc1[nH]c(/C=C2\C(=O)Nc3ccc(C(=O)N[C@H](C)c4ccc(F)cc4)cc32)c(C)c1NC(=O)[C@@H]1CCCCN1C(=O)OC(C)(C)C [6n]
endpoint: Selectivity GRK2/GRK5
unit.text: fold
number: 3

molecule: Cc1[nH]c(/C=C2\C(=O)Nc3ccc(C(=O)N[C@H](C)c4ccc(F)cc4)cc32)c(C)c1NC(=O)[C@@H]1CNCCN1 [6v]
endpoint: Selectivity GRK2/GRK5
unit.text: fold
number: 10

[a] CC(=O)N1CCC[C@@H]1C(=O)Nc1c(C)[nH]c(/C=C2\C(=O)Nc3ccc(C(=O)N[C@H](C)c4ccc(F)cc4)cc32)c1C [6e]
[b] Cc1[nH]c(/C=C2\C(=O)Nc3ccc(C(=O)N[C@H](C)c4ccc(F)cc4)cc32)c(C)c1NC(=O)[C@H]1CCCN1 [6g]
[c] Cc1[nH]c(/C=C2\C(=O)Nc3ccc(C(=O)N[C@H](C)c4ccc(F)cc4)cc32)c(C)c1NC(=O)[C@@H]1CCN(C(=O)OC(C)(C)C)C1 [6k]
Incoming: Please list these molecules in decreasing order of Selectivity GRK2/GRK5. Output spec: labels arranged per the requested ranking.
Outgoing: c, a, b
(c: 140 fold, a: 8 fold, b: 3 fold)

###

target: GRK5 (Homo sapiens); construct: Human GR K5 (residues 1- 590) w ild- type and D 311N mutant w ere expressed in E. co li Rosetta; His tag (inferred from nickel-NTA purification); assay: GRK5 kinase inhibition assay, phosphorylation of tubulin ([γ-32P]-ATP); conditions: phosphorylation of the soluble substrate tubulin; ± standard deviation from 3 to 4 independent experiments
pIC50: −log10 of the molar value.
endpoint: pIC50

structure.string: Cc1[nH]c(/C=C2\C(=O)Nc3ccc(C(=O)N[C@H](C)c4ccc(F)cc4)cc32)c(C)c1NC(=O)[C@@H]1CCCN(C(=O)OC(C)(C)C)C1
pIC50: 6.39
//
structure.string: Cc1[nH]c(/C=C2\C(=O)Nc3ccc(C(=O)N[C@H](C)c4ccc(F)cc4)cc32)c(C)c1NC(=O)[C@@H]1CCCCN1C(=O)OC(C)(C)C
pIC50: 4.48

[a] Cc1[nH]c(/C=C2\C(=O)Nc3ccc(C(=O)N[C@H](C)c4ccc(F)cc4)cc32)c(C)c1NC(=O)[C@@H]1CN(C(=O)OC(C)(C)C)CCN1
[b] Cc1[nH]c(/C=C2\C(=O)Nc3ccc(C(=O)N[C@H](C)c4ccc(F)cc4)cc32)c(C)c1NC(=O)[C@H]1CCCN1C(=O)OC(C)(C)C
[c] Cc1[nH]c(/C=C2\C(=O)Nc3ccc(C(=O)N[C@H](C)c4ccc(F)cc4)cc32)c(C)c1NC(=O)[C@H]1CCCNC1
Incoming: Provide the items ranked by increasing pIC50. Your answer should be the labels, listed in the requested order.
Outgoing: b, a, c
